Molecular target: recombinant full-length USP7 (Homo sapiens, UniProt Q93009)
Construct: A 25 μl reaction volume containing recombinant full-length USP7 (62 pM)
Sequence (Q93009 whole entry): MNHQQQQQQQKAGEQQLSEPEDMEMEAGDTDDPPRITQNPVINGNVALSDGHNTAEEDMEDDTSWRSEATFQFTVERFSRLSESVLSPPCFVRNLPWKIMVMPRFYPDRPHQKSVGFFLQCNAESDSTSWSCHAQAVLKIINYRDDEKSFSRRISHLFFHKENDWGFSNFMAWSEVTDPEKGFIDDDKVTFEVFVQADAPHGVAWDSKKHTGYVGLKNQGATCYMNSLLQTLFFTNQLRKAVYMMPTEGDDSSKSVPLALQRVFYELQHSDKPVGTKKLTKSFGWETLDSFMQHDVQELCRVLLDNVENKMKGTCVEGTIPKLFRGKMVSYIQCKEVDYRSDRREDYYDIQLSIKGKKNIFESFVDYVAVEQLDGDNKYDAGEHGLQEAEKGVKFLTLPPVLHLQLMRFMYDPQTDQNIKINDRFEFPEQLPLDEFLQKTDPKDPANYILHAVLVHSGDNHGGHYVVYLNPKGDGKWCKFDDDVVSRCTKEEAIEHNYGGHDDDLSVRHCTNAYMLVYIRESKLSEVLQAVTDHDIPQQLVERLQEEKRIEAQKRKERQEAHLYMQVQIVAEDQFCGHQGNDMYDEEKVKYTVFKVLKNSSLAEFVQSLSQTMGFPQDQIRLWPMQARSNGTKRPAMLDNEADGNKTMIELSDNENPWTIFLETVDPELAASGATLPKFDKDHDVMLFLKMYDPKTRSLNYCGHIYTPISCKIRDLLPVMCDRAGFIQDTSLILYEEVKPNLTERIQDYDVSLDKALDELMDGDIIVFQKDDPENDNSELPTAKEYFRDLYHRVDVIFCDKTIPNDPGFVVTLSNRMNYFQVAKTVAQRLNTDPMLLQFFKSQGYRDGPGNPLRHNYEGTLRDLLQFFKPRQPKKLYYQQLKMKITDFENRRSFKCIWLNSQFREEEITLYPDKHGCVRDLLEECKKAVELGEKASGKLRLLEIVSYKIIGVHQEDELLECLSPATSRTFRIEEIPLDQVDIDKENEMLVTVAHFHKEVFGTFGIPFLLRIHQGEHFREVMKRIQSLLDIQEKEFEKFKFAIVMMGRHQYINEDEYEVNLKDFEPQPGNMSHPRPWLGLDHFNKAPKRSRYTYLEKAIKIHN
Test: USP7-mediated ubiquitin-rhodamine cleavage assay
Format: biochemical
Details: recombinant full-length USP7 62 pM; ubiquitin-rhodamine 100 nM; 30-minute incubation with compound, 1 hour reaction at room temperature; read-out: Potency: USP7 IC50
Known IC50 of a selection of molecules

// worked examples, IC50 included
Cc1cc(Cl)cc(-c2ncnc3cc(CN4C(=O)C5C(C4=O)C5(C)C)sc23)c1O[C@@H]1CCNC[C@H]1F (stereo partly shown)	< 1000 nM
CCO[C@H]1CNC[C@H]1Oc1c(C)cc(Cl)cc1-c1ccnc2cc(CO)sc12	10000 to 30000 nM
Cc1cc(Cl)cc(-c2ccnc3cc(Cn4c(=O)ccn(CC(F)(F)F)c4=O)sc23)c1O[C@H]1CCC(C)(C)NC1	< 1000 nM

Then this molecule:
Exam item: Please give the documented IC50 of Cc1cc(Cl)cc(-c2ccnc3cc(CN4C(=O)C5CCCCN5C4=O)sc23)c1O[C@@H]1CNC[C@@H]1F (stereo partly shown)
Marked response: < 1000 nM
